System: Mycobacterium tuberculosis
assay method text: Cornell - Phenotypic assay to identify agents that inhibit growth of Mycobacterium tuberculosis
Assay type: functional
Design: scale not given: direction of the effect not stated beside the values
test parameters: 10 mM as filed; unlikely as a test dose
Screen size: about 53,000 compounds; about 900 (1.7%) showed an effect of 50% or more. Shown is part of a subset that was picked to be rich in strong results.
Quick list: Percent Effect per entry.
Report only the number, with the unit % understood.

The examples below pair each entry with its known result.
{"compound": "Cc1cccc(SC2CCN(C(=O)CCCn3cnnn3)CC2)c1", "observed value": 50.26}
{"compound": "O=C(NS(=O)(=O)c1cccnc1)C1CC(c2ccccc2)=NO1 (stereo unspecified)", "observed value": 35.93}

Write down the reported Percent Effect (system: Mycobacterium tuberculosis) of CCS(=O)(=O)Nc1ccc(C(=O)NCCCN2CCCC2)cc1
-15.51

Write down the reported Percent Effect (system: Mycobacterium tuberculosis) of CNC(=O)C1(C)CN(c2nnc(C)c3ccccc23)CCO1 (stereo unspecified)
14

Write down the reported Percent Effect (system: Mycobacterium tuberculosis) of CN1CCc2nnc(C3CCCN3S(=O)(=O)c3ccc(F)cc3)n2CC1 (stereo unspecified)
59.34

Write down the reported Percent Effect (system: Mycobacterium tuberculosis) of Fc1cnc(N2CCO[C@H]3[C@H](OCC4CCOCC4)CC[C@@H]32)nc1.O=C(O)C(F)(F)F
-12.23

Write down the reported Percent Effect (system: Mycobacterium tuberculosis) of O=S(=O)(c1ccc(F)cc1F)N1CCCCC1c1nnc2n1CCCC2 (stereo unspecified)
10.12

Write down the reported Percent Effect (system: Mycobacterium tuberculosis) of CC(=O)NCCCC(=O)N1CCC(Sc2cccc(C)c2)CC1
15.76

Write down the reported Percent Effect (system: Mycobacterium tuberculosis) of Cc1cccc(SC2CCN(C(=O)CCCS(N)(=O)=O)CC2)c1
37.58

Write down the reported Percent Effect (system: Mycobacterium tuberculosis) of Cc1cc2n(n1)CC(CNC1CCN(Cc3ccccc3C)CC1)CN2 (stereo unspecified)
1.638

Write down the reported Percent Effect (system: Mycobacterium tuberculosis) of COc1cc(CN2CCCC2)ccc1OC12CCCN(CC1)C2 (stereo unspecified)
6.74
